Listing: IC50 of selected compounds
# Subject of test: SARS-COV-2 3CLpro/Mpro protease (Severe acute respiratory syndrome coronavirus 2 (2019-nCoV) (SARS-CoV-2))
# Experiment description: Inhibitory effect on SARS-COV-2 3CLpro/Mpro protease by fluorescence resonance energy transfer
# Type: biochemical
# Measurement parameters: activity intervals A-D, read-out: IC50 (nM), Inhibition on SARS-CoV-2 3CLpro/Mpro protease

CNc1cncc(C(=O)N2C[C@H](Nc3c(C(=O)N4C[C@@H](C)O[C@@H](C)C4)cc(Br)cc3[N+](=O)[O-])C[C@H]2C(=O)NCc2ccnc(C(F)(F)F)c2)c1: 50 to 100 nM
CNc1cncc(C(=O)N2CCC[C@@H](Nc3c(C(=O)N4CC(C)CC(O)C4)cc(Br)cc3[N+](=O)[O-])C2)c1 (stereo partly drawn): 10 to 50 nM
C[C@@H]1CN(C(=O)c2cc(Br)cc([N+](=O)[O-])c2N[C@@H]2CCCN(C(=O)[C@H]3CNCC(F)(F)C3)C2)CCO1: 10 to 50 nM

*Q* For CNc1cncc(C(=O)N2C[C@H](Nc3c(C(=O)N4C[C@@H](C)O[C@@H](C)C4)cc(Br)cc3[N+](=O)[O-])CC2C#N)c1 (stereo in doubt) , write its IC50.
*A* 50 to 100 nM

*Q* For CNc1cncc(C(=O)N2CCC[C@@H](Nc3c(C(=O)N4CCC5(CCOC5)CC4)cc(Br)cc3[N+](=O)[O-])C2)c1 , write its IC50.
*A* < 10 nM

*Q* For CNc1cncc(C(=O)N2C[C@H](Nc3c(C(=O)N4C[C@@H](C)O[C@@H](C)C4)cc(Br)cc3[N+](=O)[O-])C[C@H]2C(=O)Nc2cc3nn(C)cc3cc2Cl)c1 , write its IC50.
*A* 100 to 200 nM
